Biological target: T1, PLCγ1 tSH2 domain (aa 545-790) (UniProt P19174 545-790)
T1 construct: also called WT tSH2; source: E. coli BL21(DE3), purified (HisTrap, 3C cleavage, SEC)
T1 sequence (looked up): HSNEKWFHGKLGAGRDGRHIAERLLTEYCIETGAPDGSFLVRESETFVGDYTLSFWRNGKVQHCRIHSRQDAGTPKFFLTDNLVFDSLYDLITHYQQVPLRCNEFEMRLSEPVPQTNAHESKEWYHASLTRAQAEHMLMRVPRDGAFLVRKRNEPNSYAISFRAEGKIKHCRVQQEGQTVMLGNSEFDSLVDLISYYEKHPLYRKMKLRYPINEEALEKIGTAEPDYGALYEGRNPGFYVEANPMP
Assay: microfluidic diffusional sizing (Fluidity One-W); 200 nM 5,6-FAM peptide held constant, PLCγ1 domains varied from 0 nM to 8000 nM, room temperature, 100 mM MES, 150 mM NaCl, 3 mM TCEP, pH 6.5; hydrodynamic radius fitted; triplicate
Conditions: both partners purified
Non-standard residues stand in square brackets, D forms with d. No end group written: not given here. pY = N[C@@H](Cc1ccc(OP(=O)(O)O)cc1)C(=O)O
READOUT LABEL: Kd

[
  {
    "BINDER": "{5,6‑FAM}-DDL[pY]EEVLFPRN (last 12 residues of KSHV pK15 cytoplasmic tail; also called 5,6-FAM-labelled pK15 (12mer); phosphorylated pK15 peptide; source: synthetic peptide, bought: Caslo ApS) [5,6-FAM-labelled phosphorylated pK15 12mer peptide]",
    "OBSERVED MEASUREMENT": "1.5 µM"
  }
]
